- System: THP-1
- MEASUREMENT PROTOCOL: Cytotoxicity against human THP1 cells at 30 ug/ml
- Format: cell-based
RECORDED METRIC: Activity

Please review the entries below; each comes with its answer.
>>> result_value("Cc1nc(C)c(-c2nn(-c3ccc(F)cc3)cc2C2CC(c3cc(Cl)c(C)cc3O)=NN2)s1 (stereo not drawn)")
"17.93%"
>>> result_value("Cc1nc(C)c(-c2nn(-c3ccc(F)cc3)cc2C2CC(c3cc(Br)ccc3O)=NN2)s1 (stereo not drawn)")
"19.51%"
>>> result_value("Cc1nc(C)c(-c2nn(-c3ccc(F)cc3)cc2-c2cc(=O)c3cc(Cl)c(C)cc3o2)s1")
"24.65%"
>>> result_value("Cc1ccc(O)c(C(=O)/C=C/c2cn(-c3ccc(F)cc3)nc2-c2sc(C)nc2C)c1")
"24.3%"
>>> result_value("Cc1nc(C)c(-c2nn(-c3ccc(F)cc3)cc2C2CC(c3c(O)cc(C)c(Cl)c3C)=NN2)s1 (stereo not drawn)")
"18.32%"
>>> result_value("Cc1nc(C)c(-c2nn(-c3ccc(F)cc3)cc2C2CC(c3cc(Cl)ccc3O)=NN2)s1 (stereo not drawn)")
"17.04%"

Task: In one line, give reported Activity of the entry `Cc1ccc2oc(-c3cn(-c4ccc(F)cc4)nc3-c3sc(C)nc3C)cc(=O)c2c1` .
Output: 4.94%

Task: In one line, give reported Activity of the entry `Cc1nc(C)c(-c2nn(-c3ccc(F)cc3)cc2/C=C/C(=O)c2cc(Cl)ccc2O)s1` .
Output: 36.55%
